- TEST_PROTOCOL: Metabolic stability in mouse liver microsomes assessed as intrinsic clearance at 1 uM measured upto 60 mins by LC-MS/MS analysis
- Format: ADME, Microsome
- SETTINGS: read-out: CLH
RECORDED_ENDPOINT: microsomal CLint at 1 µM (µL/min/mg)
One number for each entry, in µL/min/mg.

Q. Fill in: microsomal CLint at 1 µM of `COc1cc(Nc2nccc(N3CCCn4nc(C#C[C@@](C)(O)c5nccs5)cc43)n2)cc(OC)c1` is ___
A. 71

====

- TEST_PROTOCOL: AUClast in C57BL/6J mouse at 10 mg/kg, iv measured upto 24 hrs by LC-MS/MS analysis
- Format: ADME, organism-based
- SETTINGS: in vivo
RECORDED_ENDPOINT: AUC(0-t) at 24 h (ng·h/mL)
Numbers only, in ng·h/mL.

Q. Fill in: AUC(0-t) at 24 h of `COc1cc(Nc2nccc(N3CCCn4nc(C#C[C@@](C)(O)c5nccs5)cc43)n2)cc(OC)c1` is ___
A. 3020

====

- TEST_PROTOCOL: Cmax in C57BL/6J mouse at 10 mg/kg, po measured upto 24 hrs by LC-MS/MS analysis
- Assay type: ADME, organism-based
- SETTINGS: in vivo
RECORDED_ENDPOINT: Cmax (ng/mL)
Answers are plain numbers, in ng/mL.

Q. Fill in: Cmax of `COc1cc(Nc2nccc(N3CCCn4nc(C#C[C@@](C)(O)c5nccs5)cc43)n2)cc(OC)c1` is ___
A. 1280

====

- Test system: Macrophage
- TEST_PROTOCOL: Anti-inflammatory activity in mouse macrophages extracted from abdominal activity assessed as inhibition of LPS-induced nitric oxide production at 1 uM measured after 22 hrs by Griess reagent assay relative to control
- Type: functional, cell-based
Please provide measured IC50 for the entries that follow.
Answers are plain numbers, in µM.

INSERT INTO results (compound, system_under_test, recorded_endpoint, measured) VALUES
  ('CC(O)(C#Cc1cc2n(n1)CCCN2c1ccnc(Nc2cccc(N3CCOCC3)n2)n1)c1nccs1 (centres undefined)', 'Macrophage', 'IC50', 17.2),
  ('CC(O)(C#Cc1cc2n(n1)CCCN2c1ccnc(Nc2cccc(C#N)c2)n1)c1nccs1 (centres undefined)', 'Macrophage', 'IC50', 64.1);

List the reported IC50 of each compound below.
1. CC(O)(C#Cc1cc2n(n1)CCCN2c1ccnc(Nc2ccccc2)n1)c1nccs1 (centres undefined)
2. COc1cc(Nc2nccc(N3CCCn4nc(C#C[C@@](C)(O)c5nccs5)cc43)n2)cc(OC)c1
3. CC(O)(C#Cc1ccc2c(c1)N(c1nc(N)ncc1Cl)CC2)c1nccs1 (centres undefined)
4. CN(C)c1cccc(Nc2nccc(N3CCCn4nc(C#CC(C)(O)c5nccs5)cc43)n2)c1 (centres undefined)
5. CC(O)(C#Cc1cc2n(n1)CCCN2c1ccnc(Nc2ccc3c(c2)OCO3)n1)c1nccs1 (centres undefined)
6. CC(O)(C#Cc1cc2n(n1)CCCN2c1ccnc(NC23CC(C2)C3)n1)c1nccs1 (centres undefined)
7. COc1cccc(Nc2nccc(N3CCCn4nc(C#CC(C)(O)c5nccs5)cc43)n2)c1 (centres undefined)

A.
1: 59.4; 2: 78.1; 3: 58.6; 4: 76.8; 5: 80.3; 6: 16.5; 7: 45.9
